Value source: patent US20240408169A1

# System: NCI-H1048 cells
# experimental-details: MTT proliferation assay, NCI-H1048;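 also: Dose-response in 96-well plates over 8 or 10 concentration points, with exposure spanning 3-4 cell doublings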
# Format: cell-based
# experimental-conditions: 5 days compound exposure, 1:3 serial dilution starting at 10 μM

compound	target-or-system	GI50 (nM)
CC(C)C[C@@H]1NC(=O)[C@@H](N(C)C(=O)[C@@H](NC(=O)[C@@H]2C[C@@H](F)CN2C(=O)C2(C(F)(F)F)CCC2)C2CC2)CC=CCCCCN(C)C(=O)[C@H](Cc2cc(Cl)ccc2Oc2ncccn2)N(C)C1=O [Example 157]	NCI-H1048 cells	80
CC(C)C[C@@H]1NC(=O)[C@@H](N(C)C(=O)[C@@H](NC(=O)[C@@H]2C[C@@H](F)CN2C(=O)C2(C(F)(F)F)CCC2)C2CC2)CC=CCCCCN(C)C(=O)[C@H](Cc2cc(F)ccc2-c2cnn(C)c2)N(C)C1=O [Example 40]	NCI-H1048 cells	60

====

# target-or-system: CyclinB1/CDK1 (Homo sapiens, UniProt P14635)
# Construct: purchased Eurofins, discovery 14-450
# experimental-details: Fluorescence Polarization (FP) competitive binding assay, Cyclin B1/Cdk1
# experimental-conditions: read-out: Cyclin B FP IC50; 10 nM Cyclin B1/Cdk1, 2 nM FAM probe; average of 2-3 independent experiments
pIC50: −log10 of the molar value. *1 amine or outer side, *2 acyl side, *3 side chain or, on linkers, in order; H or OH if unused. Where a SMILES comes first, the peptide text is derived from it. Bridges are numbered along the chain shown (N, C = ends). [ ]: non-standard residue; d: D form. The star is where a group is joined. NMehhhLys(Me) = CN([C@@H](CCCCCCCN(C)[*:3])C(=O)[*:2])[*:1]; Cyclobutanecarbonyl(1-CF3) = O=C(C1(C(F)(F)F)CCC1)*; cBuCO(3,3-F2-1-CF3) = O=C(C1(C(F)(F)F)CC(F)(F)C1)*; X25 = CCOc1ncc(Cl)cc1C[C@@H](C(=O)[*:2])N(C)[*:1]; Pro(trans-4-F) = O=C(O)[C@@H]1C[C@@H](F)CN1; Gly(cPr) = N[C@H](C(=O)O)C1CC1

molecule	pIC50
CCOc1ncc(Cl)cc1C[C@H]1C(=O)N(C)CCCCCCC[C@H](N(C)C(=O)[C@@H](NC(=O)[C@@H]2C[C@@H](F)CN2C(=O)C2(C(F)(F)F)CC(F)(F)C2)C2CC2)C(=O)N[C@@H](CC(C)C)C(=O)N1C [Example 225] ({cBuCO(3,3-F2-1-CF3)}-[Pro(trans-4-F)][Gly(cPr)][NMehhhLys(Me)]L[X25]; lactam 3-C)	7.70
CCOc1ncc(Cl)cc1C[C@H]1C(=O)N(C)CCCCCCC[C@H](N(C)C(=O)[C@@H](NC(=O)[C@@H]2C[C@@H](F)CN2C(=O)C2(C(F)(F)F)CCC2)C2CC2)C(=O)N[C@@H](CC(C)C)C(=O)N1C [Example 227] ({Cyclobutanecarbonyl(1-CF3)}-[Pro(trans-4-F)][Gly(cPr)][NMehhhLys(Me)]L[X25]; lactam 3-C)	7.70

====

# target-or-system: CyclinB1/CDK1 (Homo sapiens, UniProt P14635)
# Construct: purchased Eurofins, discovery 14-450
# experimental-details: Fluorescence Polarization (FP) competitive binding assay, Cyclin B1/Cdk1;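 also: fluorescence polarization read after equilibration at room temperature, with IC50 taken from serially diluted dose-response curves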
# experimental-conditions: 10 nM Cyclin B1/Cdk1, 2 nM FAM probe; average of 2-3 independent experiments; read-out: Cyclin B FP IC50
*1 amine or outer side, *2 acyl side, *3 side chain or, on linkers, in order; H or OH if unused. Where a SMILES comes first, the peptide text is derived from it. Bridges are numbered along the chain shown (N, C = ends). [ ]: non-standard residue; d: D form. The star is where a group is joined. NMePhe(2-(4-MorPh),5-Cl) = CN[C@@H](Cc1cc(Cl)ccc1-c1ccc(N2CCOCC2)cc1)C(=O)O; X184 = CC(=O)N1CCC(c2ccc(F)cc2C[C@@H](C(=O)[*:2])N(C)[*:1])CC1; NMehhhLys(Me) = CN([C@@H](CCCCCCCN(C)[*:3])C(=O)[*:2])[*:1]; NMe(hhhLys) = CN([C@@H](CCCCCCCN[*:3])C(=O)[*:2])[*:1]; X88 = CC(C)c1ccc(Cl)cc1C[C@@H](C(=O)[*:2])N(C)[*:1]; cBuCO(3,3-F2-1-CF3) = O=C(C1(C(F)(F)F)CC(F)(F)C1)*; Pro(trans-4-F) = O=C(O)[C@@H]1C[C@@H](F)CN1; Gly(cPr) = N[C@H](C(=O)O)C1CC1
quantity-name: IC50 (nM)

compound	quantity-name	result-value
CC(C)C[C@@H]1NC(=O)[C@@H](N(C)C(=O)[C@@H](NC(=O)[C@@H]2C[C@@H](F)CN2C(=O)C2(C(F)(F)F)CC(F)(F)C2)C2CC2)CCCCCCCNC(=O)[C@H](Cc2cc(Cl)ccc2C(C)C)N(C)C1=O [Example 63] ({cBuCO(3,3-F2-1-CF3)}-[Pro(trans-4-F)][Gly(cPr)][NMe(hhhLys)]L[X88]; lactam 3-C)	IC50	20
CC(C)C[C@@H]1NC(=O)[C@@H](N(C)C(=O)[C@H](CCC(=O)O)NC(=O)[C@@H]2C[C@@H](F)CN2C(=O)C2(C(F)(F)F)CC(F)(F)C2)CCCCCCCN(C)C(=O)[C@H](Cc2cc(Cl)ccc2-c2ccc(N3CCOCC3)cc2)N(C)C1=O [Example 418] ({cBuCO(3,3-F2-1-CF3)}-[Pro(trans-4-F)]E[NMehhhLys(Me)]L[NMePhe(2-(4-MorPh),5-Cl)]; lactam 3-C)	IC50	20
CC(=O)N1CCC(c2ccc(F)cc2C[C@H]2C(=O)N(C)CCCCCCC[C@H](N(C)C(=O)[C@@H](NC(=O)[C@@H]3C[C@@H](F)CN3C(=O)C3(C(F)(F)F)CC(F)(F)C3)C3CC3)C(=O)N[C@@H](CC(C)C)C(=O)N2C)CC1 [Example 45] ({cBuCO(3,3-F2-1-CF3)}-[Pro(trans-4-F)][Gly(cPr)][NMehhhLys(Me)]L[X184]; lactam 3-C)	IC50	20
